These measurements were taken from patent US20240218023A1.

System: HepG2 cells
Experiment: Cellular uptake / binding of FAM-labeled ligands to HepG2 cells (flow cytometry, proportion of FAM positive cells)
Assay type: cell-based, human
Details: 40 nM ligand, 24 h, HepG2
# if value of Efficiency (%) of cellular uptake (percentage of ligand-bound HepG2 cells) reaches 80%, tag 1; if it stays below, tag -1

Answered cases to consult:
5-FAM-CPMB-0313: CPS-031 cyclic peptide scaffold, Gal-3 GalNAc linker, 5-FAM label; FIG. 14N (KEKAKA; cyclised or stapled); -1
5-FAM-CPMB-0015: CPS-001 cyclic peptide scaffold, Gal-5 GalNAc linker, 5-FAM label; FIG. 14E (KEKGKG; cyclised or stapled); 1
5-FAM-CPMB-0031-Ac: negative control, cyclic peptide w/o tri-GalNAc; CPS-003, Gal-1; FIG. 14R (KEKGKG; D-residues; cyclised or stapled) [reference compound]; -1
5-FAM-CPMB-0033: CPS-003 cyclic peptide scaffold, Gal-3 GalNAc linker, 5-FAM label; FIG. 14J (KEKGKG; D-residues; cyclised or stapled); 1

// next entry
Task: API: above_or_equal(metric=Efficiency (%) of cellular uptake (percentage of ligand-bound HepG2 cells), cutoff=80%) for item 5-FAM-CPMB-0034: CPS-003 cyclic peptide scaffold, Gal-4 GalNAc linker, 5-FAM label; FIG. 14K (KEKGKG; D-residues; cyclised or stapled)
Result: -1
